Measured TGI accompanies every entry in the list below.
Tested on: SNB-19 CNS
Assay: NCI tumour cell line growth inhibition, 48 h

Record COC(=O)C1C(C(=O)OC)C2(OC)c3ccccc3-c3ccccc3C12 (centres undefined) : what is its TGI with SNB-19 CNS? > 100 µM

What about this molecule? COC(=O)Nc1nc2ccc(S(=O)(=O)NC(CC(C)C)C(=O)OC)cc2[nH]1 (centres undefined) 45 µM

What about this molecule? CC(=O)C(=[N+]=[N-])C(=O)NCC#N > 10 µM

What about this molecule? CC1(C)CN=C(c2ccc3c(c2)Cc2cc(C4=NCC(C)(C)N4)ccc2-3)N1 > 100 µM

What about this molecule? CC(=O)c1c(C)[nH]c(-c2nc3ccc(N4CCN(C)CC4)cc3[nH]2)c1-c1ccc(OCC2CCOCC2)cc1 25.1 µM

What about this molecule? N#C/C(=C\c1cn(Cc2ccccc2)c2ccccc12)c1nn(-c2ccccc2)c(N)c1C#N 28.8 µM

What about this molecule? CCOC(=O)Nc1nc2ccc(Cn3cccc3)cc2[nH]1 > 100 µM

What about this molecule? Nc1nc(Cl)c(N)c(NCC2(CO)CCC2)n1 > 100 µM

What about this molecule? COC(=O)c1c(O)ccc2c1c1c(n2Cc2ccccc2)C(=O)c2ccccc2C1=O 28.7 µM

What about this molecule? COC(=O)C1=C(O)C(C(=O)OC)[C@]2(O)[C@H](C(=O)OC)[C@H]1C[C@@H](c1ccc(F)cc1)[C@H]2C(=O)OC (some centres undefined) > 100 µM

What about this molecule? O=C(N/N=C/c1ccc2c(c1)OCO2)Nc1ccccc1Cl > 79.3 µM

What about this molecule? CC1=C(C(=O)Nc2ccccc2C)C(c2ccc(Cl)c(Cl)c2)C(C(=O)Nc2ccccc2C)=C(C)N1 > 100 µM

What about this molecule? CCOC(=O)C(SCCO)C(C(=O)OCC)n1cnc2c(N)ncnc21 (centres undefined) > 69.1 µM

* * *

Tested on: HOP-92 NSCLC
Assay: NCI tumour cell line growth inhibition, 48 h
experimental readout: TGI (µM)
State just the number; it will be interpreted in µM.

1) CNc1c2cccc(C)c2nc2c(C(=O)NCCN(C)C)cccc12 ... 0.522

Sample CC[C@H](NC(=O)[C@H](C)NC)C(=O)N1C[C@@H](O)C[C@H]1Cc1c(-c2[nH]c3cc(F)ccc3c2C[C@@H]2C[C@H](O)CN2C(=O)[C@H](CC)NC(=O)[C@H](C)NC)[nH]c2cc(F)ccc12 — what was its TGI? 40.8

* * *

Test system: NCI-H226 lung
Test: NCI tumour cell line growth inhibition, 48 h
Measured TGI accompanies every entry in the list below.

Use the examples below as a reference point.
1. COC(=O)Nc1nc2ccc(S(=O)(=O)NC(CC(C)C)C(=O)OC)cc2[nH]1 (stereo not drawn) ... > 100 µM
2. CC(=O)[O-].CC(=O)[O-].[Pt+2].c1cscn1.c1cscn1 ... > 100 µM
3. C=CC1(C(=O)O)CCC(C(C)(C)C)CC1 (stereo not drawn) ... > 100 µM
4. Nc1c(C(=O)c2ccc(Cl)cc2)sc(Nc2ccccc2)c1-c1nc2ccccc2s1 ... > 100 µM
5. CC(C)(C)[Si](C)(C)O[C@@H](C(=O)OC1C=CCCC1)[C@@H](NC(=O)c1ccccc1)c1ccccc1 (stereo partly drawn) ... > 100 µM
6. O=C1c2ccccc2-c2c1c1ccccc1c(=O)n2CCCNCCCn1ccnc1 ... 0.436 µM
7. O=S(=O)(NC1=NCCN1C(=S)SN1CCn2c1nsc2=S)c1ccc(Br)cc1 ... > 100 µM

Sample O=Cc1ccc(-c2cc(C=O)c(-c3cccs3)[nH]2)s1 — what was its TGI? 40 µM

* * *

System: LOX IMVI melanoma
Assay: NCI tumour cell line growth inhibition, 48 h
experimental readout: GI50

1. CSc1ccc(C2=NN(C(=O)c3ccc(F)cc3)C(c3ccc(F)cc3)C2)cc1 (configuration not stated) ... 3.62 µM
2. Nc1c(C(=O)c2ccc(Cl)cc2)sc(Nc2ccccc2)c1-c1nc2ccccc2s1 ... 3.25 µM
3. O=C(/C=C/c1ccc(F)cc1)c1ccc(Cl)cc1Cl ... 41.1 µM
4. Cc1cc(I)cc(CN(C)CCCN2CCSCC2)c1O ... 17.2 µM
5. O=c1c(Oc2ccc(F)cc2F)cc2cnc(NC3CCOCC3)nc2n1C1CCS(=O)(=O)CC1 ... > 25 µM
6. O=C(O[C@H]1CN[C@H](C#Cc2cc3ncnc(Nc4ccc5c(ccn5Cc5cc(F)ccc5F)c4)c3s2)C1)N1CCOCC1 ... 3.5 µM

Okay, now this molecule:
Sample CCOC(=O)C(Cc1c[nH]c2ccc(N)cc12)(NC(C)=O)C(=O)OCC — what was its GI50? > 1000 µM

* * *

Measured TGI accompanies every entry in the list below.
System: NCI-H23 lung
Assay: NCI tumour cell line growth inhibition, 48 h
State just the number; it will be interpreted in µM.

1. CCOC(=O)C(C(=O)OCC)=C1NC2(c3ccccc3Nc3ccc(C)cc32)C(C#N)S1 (centres undefined) ... 12.3

Sample COc1cc(/C=C/C(=O)CC(=O)/C=C/c2cc(OC)c(OC)c(OC)c2)cc(OC)c1OC — what was its TGI? 20.2

* * *

Test system: SK-OV-3 ovarian
Experiment: NCI tumour cell line growth inhibition, 48 h
Measured TGI accompanies every entry in the list below.

1) N=c1oc2ccc([N+](=O)[O-])cc2cc1C(=O)NCc1ccccc1 ... > 100 µM

Okay, now this compound:
Record CCCCOC(=O)NC(=O)c1cn(CCCOC(=O)CCCCCCCCC(=O)OCCCn2cc(C(=O)NC(=O)OCCCC)c(=O)[nH]c2=O)c(=O)[nH]c1=O : what is its TGI with SK-OV-3 ovarian? > 100 µM

* * *

Tested on: SF-268 CNS
Experiment: NCI tumour cell line growth inhibition, 48 h
experimental readout: TGI

Use the examples below as a reference point.
1) CN(C)c1ccc(/C=N\NC(=O)c2ccccc2Nc2ccccc2C(=O)N/N=C/c2ccc(N(C)C)cc2)cc1 ... > 100 µM
2) CN1C2CCC1CC(CCOC(c1ccc(F)cc1)c1ccc(F)cc1)C2 (stereo not given) ... 29.2 µM
3) Cc1c(NC(=O)C(C)(C)Br)c(=O)oc2c(C)c3occc(=O)c3cc12 ... > 100 µM
4) CO[C@H]1c2cccc3cccc(c23)[C@@H]1n1[nH]c(=O)n(C(C)(C)C)c1=O ... > 100 µM
5) COC(=O)C(C)NP(=O)(N1CC1)N1CC1 (stereo not given) ... > 100 µM
6) COc1ccc(/C=C2\CCC(CNc3cc(C)on3)C2=O)cc1 (stereo not given) ... > 100 µM
7) CC1(C)C2CCC3=C(CCC4(C)C5C[C@](C)(C(=O)O)CC[C@]5(C)CC[C@]34C)[C@@]2(C)CC[C@@H]1O (stereo not given in full) ... > 100 µM
8) CN(C)C=C1C(=O)c2c(Br)sc(Br)c2C1=O ... 32.5 µM

Sample Cc1cc(I)cc(CN(C)CCCN2CCSCC2)c1O — what was its TGI? > 100 µM

What about this compound? O=Cc1ccc(-c2cc(C=O)c(-c3cccs3)[nH]2)s1 > 100 µM

What about this compound? CNc1c2cccc(C)c2nc2c(C(=O)NCCN(C)C)cccc12 0.318 µM

What about this compound? Nc1ccc(N(S(=O)(=O)c2ccccc2)S(=O)(=O)c2ccccc2)c(Cl)c1 > 100 µM

What about this compound? COC(=O)C1=C(O)C(C(=O)OC)[C@]2(O)[C@H](C(=O)OC)[C@H]1C[C@@H](c1ccc(F)cc1)[C@H]2C(=O)OC (stereo not given in full) 95 µM

* * *

Measured GI50 accompanies every entry in the list below.
Test system: A498 renal
Test: NCI tumour cell line growth inhibition, 48 h

1) O=c1ccn(C2OC(CO)C(O)C2F)c(=O)[nH]1 (centres undefined) ... > 1000 µM
2) O=C1c2ccccc2-c2c1c1ccccc1c(=O)n2CCCNCCCn1ccnc1 ... 2.05 µM
3) COc1ccc(/C=N\NC(=O)CN2CCN(c3cc4c(cc3F)c(=O)c(C(=O)N/N=C/c3ccc(OC)c(OC)c3)cn4C3CC3)CC2)cc1OC ... 1.4 µM

Sample Cc1nc2sc(C(=O)Nc3cccc(Cl)c3C)c(N)c2cc1C(=O)/C=C/c1ccccc1 — what was its GI50? 0.298 µM

What about this molecule? CC(O)c1cccc(NCc2c3ccccc3c(=O)n3c2oc2ccccc23)c1 (centres undefined) 1.61 µM

What about this molecule? COc1cc(OC)cc(C2CC(=O)Nc3c2c(C)nn3-c2nc3ccccc3[nH]2)c1 (centres undefined) 2.11 µM

What about this molecule? Nc1c(C(=O)c2ccc(Cl)cc2)sc(Nc2ccccc2)c1-c1nc2ccccc2s1 3.67 µM

What about this molecule? CC(=O)c1c(C)[nH]c(-c2nc3ccc(N4CCN(C)CC4)cc3[nH]2)c1-c1ccc(OCC2CCOCC2)cc1 0.345 µM

What about this molecule? COc1cc(/C=C/C(=O)CC(=O)/C=C/c2cc(OC)c(OC)c(OC)c2)cc(OC)c1OC 10.4 µM

The measurements presented in this section are drawn from PubChem BioAssay (NCI).
